system: HCoV-NL63; experiment: Primary antiviral screening (virus inhibition) in HCoV-NL63-infected LLC-MK2 cells; assay type: cell-based, Human coronavirus NL63; details: HCoV-NL63/LLC-MK2
Exercise: for every item that follows, state its recorded SI (=CC50/EC50).
Answers are plain numbers.

Sample answers from the record:
# SMILES CODE, REPORTED METRIC, OBSERVED MEASUREMENT
records = [
    ("COC(=O)[C@H](C)NC(=O)c1nc(-c2ccc(C(F)(F)F)cc2)oc1-c1ccc(SC)cc1", "SI (=CC50/EC50)", 2.84),
    ("COC(=O)[C@H](CC(C)C)NC(=O)c1nc(-c2ccc(C(F)(F)F)cc2)oc1-c1cccc(SC)c1", "SI (=CC50/EC50)", 5.12),
]

Lookup: Recorded SI (=CC50/EC50) for COC(=O)[C@H](C)NC(=O)c1nc(-c2ccc(C(F)(F)F)cc2)oc1-c1cccc(OC)c1 , please?
Found: 3.33

###

Assign log10 of CC50 at 72 h to each entry below.
Assay: Cytotoxicity (EZ-Cytox WST) in LLC-MK2 cells
Type: cell-based
Settings: rhesus monkey, 72 h exposure
Protocol: Cells were seeded at 2 × 10^4 cells per well in 96-well plates and, after overnight attachment, exposed to test compounds for 72 h in maintenance medium. The final DMSO concentration was ≤0.1% (v/v) for all conditions, including vehicle controls. Cell viability was quantified using EZ-Cytox WST reagent (DoGenBio, Seoul, Republic of Korea) according to the manufacturer’s instructions; absorbance was read at 450 nm on a SpectraMax i3x microplate reader (Molecular Devices, San Jose, CA, USA). […]
Values reflect log10 of reported CC50 at 72 h (µM).

# SMILES CODE, log10 of CC50 at 72 h
records = [
    ("COC(=O)[C@H](CC(C)C)NC(=O)c1nc(-c2ccc(C(F)(F)F)cc2)oc1-c1cccc(SC)c1", 1.53),
    ("COc1cccc(-c2oc(-c3ccc(C(F)(F)F)cc3)nc2C(=O)N[C@@H](C)C(N)=O)c1", 0.49),
    ("COC(=O)[C@H](C)NC(=O)c1nc(-c2ccc(C(F)(F)F)cc2)oc1-c1ccc(SC)cc1", 1.34),
    ("COC(=O)[C@H](C)NC(=O)c1nc(-c2ccc(C(F)(F)F)cc2)oc1-c1cccc(OC)c1", 1.49),
]

Moving on to another compound below.
Lookup: Could you tell me which log10 of CC50 at 72 h is on file for COC(=O)[C@H](CC(C)C)NC(=O)c1nc(-c2ccc(C(F)(F)F)cc2)oc1-c1cccc(OC)c1 ?
Found: 1.40

###

assay: Cytotoxicity (EZ-Cytox WST) in LLC-MK2 cells; type: cell-based; conditions: rhesus monkey, 72 h exposure
Answer each item with its documented CC50 at 72 h.

Return reported CC50 at 72 h values for all items listed beneath this line.
1. COC(=O)[C@H](C)NC(=O)c1nc(-c2ccc(C(F)(F)F)cc2)oc1-c1cccc(SC)c1 [KB-2742]
2. CSc1cccc(-c2oc(-c3ccc(C(F)(F)F)cc3)nc2C(=O)N[C@@H](C)C(N)=O)c1 [KB-2769]
3. COC(=O)C(CC1CCNC1=O)NC(=O)c1nc(-c2ccc(C(F)(F)F)cc2)oc1-c1cccc(SC)c1 (stereo not drawn) [KB-2772]
4. COC(=O)C(CC1CCNC1=O)NC(=O)c1nc(-c2ccc(C(F)(F)F)cc2)oc1-c1cccc(OC)c1 (stereo not drawn) [KB-2773]
5. CSc1cccc(-c2oc(-c3ccc(C(F)(F)F)cc3)nc2C(=O)N[C@@H](CC(C)C)C(N)=O)c1 [KB-2771]

Found:
1. < 25 µM
2. < 6.25 µM
3. > 50 µM
4. < 25 µM
5. < 25 µM

Lookup: So what does the record say about CC50 at 72 h for COc1cccc(-c2oc(-c3ccc(C(F)(F)F)cc3)nc2C(=O)NCC2CC2)c1 [KB-2777] ?
Found: > 50 µM
